- assayed target: RNA-directed RNA polymerase (Hepacivirus hominis)
- assay name: Effective dose for RNA dependent RNA polymerase Nonstructural protein 5B (HCV NS5B polymerase) in Hepatitis C virus
attribute measured: ED50

Worked cases, ED50 given:
molecule	ED50
O=C(O)CCCC(=O)N/C(=C\c1ccc(Oc2ccccc2I)cc1)C(=O)O	> 100 µM
O=C(O)/C(=C/c1ccc(Oc2ccccc2Br)cc1)NC(=O)c1ccc(F)c(F)c1	> 100 µM
O=C(O)/C(=C/c1ccc(Oc2ccccc2I)cc1)NC(=O)C(O)c1ccccc1 (stereo unspecified)	> 100 µM

Exercise: Please tell me: ED50 of O=C(CCC1CCCC1)N/C(=C\c1ccc(Oc2ccccc2C(F)(F)F)cc1)C(=O)O , system RNA-directed RNA polymerase (Hepacivirus hominis)?
Solution: 5 µM

Exercise: Please tell me: ED50 of O=C(Cc1ccc(Cl)cc1)N/C(=C\c1ccc(Oc2ccccc2Br)cc1)C(=O)O , system RNA-directed RNA polymerase (Hepacivirus hominis)?
Solution: > 100 µM

Exercise: Please tell me: ED50 of O=C(CCc1ccc(Cl)cc1)N/C(=C\c1ccc(Oc2ccccc2Br)cc1)C(=O)O , system RNA-directed RNA polymerase (Hepacivirus hominis)?
Solution: > 100 µM

Exercise: Please tell me: ED50 of O=C(CCC1CCCC1)N/C(=C\c1ccc(Oc2ccccc2I)cc1)C(=O)O , system RNA-directed RNA polymerase (Hepacivirus hominis)?
Solution: 15 µM

Exercise: Please tell me: ED50 of O=C(Cc1ccc(C(F)(F)F)cc1)N/C(=C\c1ccc(Oc2ccccc2Br)cc1)C(=O)O , system RNA-directed RNA polymerase (Hepacivirus hominis)?
Solution: > 100 µM

Exercise: Please tell me: ED50 of O=C(Nc1ccc(O)cc1)/C(=C/c1ccc(Oc2ccccc2Br)cc1)NC(=O)c1ccccc1 , system RNA-directed RNA polymerase (Hepacivirus hominis)?
Solution: > 50 µM

Exercise: Please tell me: ED50 of O=C(Nc1ccccc1C(=O)O)/C(=C/c1ccc(Oc2ccccc2Br)cc1)NC(=O)c1ccccc1 , system RNA-directed RNA polymerase (Hepacivirus hominis)?
Solution: > 50 µM

Exercise: Please tell me: ED50 of O=C(O)/C(=C/c1ccc(Oc2ccccc2I)cc1)NC(=O)C1CC1 , system RNA-directed RNA polymerase (Hepacivirus hominis)?
Solution: > 100 µM
